Reference source for all entries: patent US20050256058A1

k2 values for the binders below.
# target-of-assay: T1, Caspase-6 (UniProt P55212 24-293, limits assumed)
# T1 sequence (looked up): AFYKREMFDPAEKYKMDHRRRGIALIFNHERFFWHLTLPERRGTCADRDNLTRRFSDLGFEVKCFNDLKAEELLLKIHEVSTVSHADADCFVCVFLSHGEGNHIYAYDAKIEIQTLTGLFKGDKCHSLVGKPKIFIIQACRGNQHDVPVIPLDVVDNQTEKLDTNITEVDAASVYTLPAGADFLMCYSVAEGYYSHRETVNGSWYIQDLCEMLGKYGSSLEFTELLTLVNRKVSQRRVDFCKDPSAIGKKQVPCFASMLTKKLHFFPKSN
# measurement-notes: cell-based or functional assay
Numbered stars: 1 amine (or outer) side, 2 acyl side, 3 side chain; on linkers, the order of the positions; unused ones are H or OH. Square brackets hold non-standard residues; d marks the D form. * marks the point of attachment. CH═CH‑CON(CH2Ph)2 = O=C(/C=C/*)N(Cc1ccccc1)Cc1ccccc1; CH═CH‑CON(CH3)CH2CH2Ph = CN(CCc1ccccc1)C(=O)/C=C/*; AAsp = aza-Asp, O=C(N(CC(=O)[*:3])N[*:1])[*:2]; CH═CH‑CON(CH3)CH2Ph = CN(Cc1ccccc1)C(=O)/C=C/*; CH═CH‑COOCH2Ph = O=C(/C=C/*)OCc1ccccc1; CH═CH‑COOEt = CCOC(=O)/C=C/*; Cbz = O=C(OCc1ccccc1)*

binder	k2 (M⁻¹ s⁻¹)
Cbz-LET[AAsp]-{CH═CH‑CO‑tetrahydroquinoline} [Cbz-Leu-Glu-Thr-AAsp-CH═CH-CON-tetrahydroquinoline]	13000
Cbz-Glu-Val-[AAsp]-{CH═CH‑COOEt} (SMILES CCOC(=O)/C=C/C(=O)N(CC(=O)O)NC(=O)[C@@H](NC(=O)[C@H](CCC(=O)O)NC(=O)OCc1ccccc1)C(C)C) [Cbz-Glu-Val-AAsp-CH═CH-COOEt]	3540
Cbz-DEV[AAsp]-{CH═CH‑CO‑tetrahydroquinoline} [Cbz-Asp-Glu-Val-AAsp-CH═CH-CON-tetrahydroquinoline]	5700
Cbz-LET[AAsp]-{CH═CH‑CON(CH3)CH2‑1‑Napth} [Cbz-Leu-Glu-Thr-AAsp-CH═CH-CON(CH3)CH2-1-Napth]	21700
Cbz-DEV[AAsp]-{CH═CH‑CON(CH3)CH2Ph} (SMILES CC(C)[C@H](NC(=O)[C@H](CCC(=O)O)NC(=O)[C@H](CC(=O)O)NC(=O)OCc1ccccc1)C(=O)NN(CC(=O)O)C(=O)/C=C/C(=O)N(C)Cc1ccccc1) [Cbz-Asp-Glu-Val-AAsp-CH═CH-CON(CH3)CH2Ph]	9500
Cbz-DEV[AAsp]-{cis‑CH═CH‑COOEt} [Cbz-Asp-Glu-Val-AAsp-CH═CH-COOEt (cis)]	11000
Cbz-LET[AAsp]-{CH═CH‑CON(CH3)CH2CH2Ph} (SMILES CC(C)C[C@H](NC(=O)OCc1ccccc1)C(=O)N[C@@H](CCC(=O)O)C(=O)N[C@H](C(=O)NN(CC(=O)O)C(=O)/C=C/C(=O)N(C)CCc1ccccc1)[C@@H](C)O) [Cbz-Leu-Glu-Thr-AAsp-CH═CH-CON(CH3)CH2CH2Ph]	2550
Cbz-DEV[AAsp]-{CH═CH‑CON(CH2Ph)2} (SMILES CC(C)[C@H](NC(=O)[C@H](CCC(=O)O)NC(=O)[C@H](CC(=O)O)NC(=O)OCc1ccccc1)C(=O)NN(CC(=O)O)C(=O)/C=C/C(=O)N(Cc1ccccc1)Cc1ccccc1) [Cbz-Asp-Glu-Val-AAsp-CH═CH-CON(CH2Ph)2]	5100
Cbz-DEV[AAsp]-{CH═CH‑COPh} [Cbz-Asp-Glu-Val-AAsp-CH═CH-COPh]	1800
Cbz-DEV[AAsp]-{CH═CH‑CONHCH2CH2Ph} [Cbz-Asp-Glu-Val-AAsp-CH═CH-CONHCH2CH2Ph]	3470
Cbz-LET[AAsp]-{CH═CH‑COOCH2Ph} (SMILES CC(C)C[C@H](NC(=O)OCc1ccccc1)C(=O)N[C@@H](CCC(=O)O)C(=O)N[C@H](C(=O)NN(CC(=O)O)C(=O)/C=C/C(=O)OCc1ccccc1)[C@@H](C)O) [Cbz-Leu-Glu-Thr-AAsp-CH═CH-COOCH2Ph]	47600
Cbz-LET[AAsp]-{CH═CH‑CONHCH2CH2Ph} [Cbz-Leu-Glu-Thr-AAsp-CH═CH-CONHCH2CH2Ph]	2150
Cbz-DEV[AAsp]-{CH═CH‑CON(CH2-1-Napth)2} [Cbz-Asp-Glu-Val-AAsp-CH═CH-CON(CH2-1-Napth)2]	29700
Cbz-LET[AAsp]-{CH═CH‑CONHPh} [Cbz-Leu-Glu-Thr-AAsp-CH═CH-CONHPh]	11400
Cbz-LET[AAsp]-{CH═CH‑CON(CH2Ph)2} (SMILES CC(C)C[C@H](NC(=O)OCc1ccccc1)C(=O)N[C@@H](CCC(=O)O)C(=O)N[C@H](C(=O)NN(CC(=O)O)C(=O)/C=C/C(=O)N(Cc1ccccc1)Cc1ccccc1)[C@@H](C)O) [Cbz-Leu-Glu-Thr-AAsp-CH═CH-CON(CH2Ph)2]	14100
